PROTOCOL_NOTES: Hepatic impairment study: atogepant plasma PK
Format: in vivo, human
CONDITION_SUMMARY: human, plasma, oral, 60 mg, normal hepatic function; read-out: AUC0-∞ Geometric Least Squares Mean, Reference

QUERY_SMILES: C[C@@H]1[C@H](c2c(F)ccc(F)c2F)C[C@H](NC(=O)c2cnc3c(c2)C[C@@]2(C3)C(=O)Nc3ncccc32)C(=O)N1CC(F)(F)F
AUC(0-inf) / ng·h/mL: 2630

* * *

PROTOCOL_NOTES: Atogepant-rifampin drug interaction study: atogepant plasma PK
Format: in vivo, human
CONDITION_SUMMARY: both sexes, human, plasma, oral; Treatment A: atogepant 60 mg alone; read-out: Vz/F

QUERY_SMILES: C[C@@H]1[C@H](c2c(F)ccc(F)c2F)C[C@H](NC(=O)c2cnc3c(c2)C[C@@]2(C3)C(=O)Nc3ncccc32)C(=O)N1CC(F)(F)F
READING_UNIT: L
Vd/F: 390
